# STUDY_TARGET: T1, GPR39 (G protein-coupled receptor 39) (Homo sapiens (Human), UniProt O43194 1-453)
# T1 sequence: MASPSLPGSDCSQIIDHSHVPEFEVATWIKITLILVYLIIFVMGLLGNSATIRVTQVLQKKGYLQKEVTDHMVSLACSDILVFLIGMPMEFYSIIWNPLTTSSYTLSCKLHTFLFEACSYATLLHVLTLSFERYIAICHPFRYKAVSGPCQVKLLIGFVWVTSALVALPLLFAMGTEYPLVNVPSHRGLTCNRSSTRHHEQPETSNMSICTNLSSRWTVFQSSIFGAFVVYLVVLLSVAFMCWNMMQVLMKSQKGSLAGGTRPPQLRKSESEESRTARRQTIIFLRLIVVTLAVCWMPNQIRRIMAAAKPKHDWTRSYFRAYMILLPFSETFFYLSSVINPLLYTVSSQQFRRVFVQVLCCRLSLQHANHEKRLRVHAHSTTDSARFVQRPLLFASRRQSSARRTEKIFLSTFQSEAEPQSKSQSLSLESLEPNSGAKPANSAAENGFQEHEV
# EXPERIMENT_SUMMARY: cell-based or functional assay
Numbered stars: 1 amine (or outer) side, 2 acyl side, 3 side chain; on linkers, the order of the positions; unused ones are H or OH. Square brackets hold non-standard residues; d marks the D form. Ends that are not written are not given here. * marks the point of attachment. DAMP‑3 = His whose imidazole is a 1,3-diphenethyl-2,3-dihydro-1H-imidazol-4-yl group, O=C([C@H](CC1=CN(CCc2ccccc2)CN1CCc1ccccc1)N[*:1])[*:2]; thiophene = His carrying a thiophen-2-yl group on the imidazole (imidazole C2), c1csc(*)c1; Biotin = O=C1N[C@H]2[C@H](CS[C@H]2CCCCC(=O)*)N1; dPhe(4-CF3) = N[C@H](Cc1ccc(C(F)(F)F)cc1)C(=O)O; dPhe(4-Me) = Cc1ccc(C[C@@H](N)C(=O)O)cc1; Trt = c1ccc(C(c2ccccc2)(c2ccccc2)*)cc1; Benzhydryl = c1ccc(C(c2ccccc2)*)cc1; Tos = Cc1ccc(S(=O)(=O)*)cc1; Octanoyl = CCCCCCCC(=O)*; SO3H = O=S(=O)(O)*
Listed here: items and their measured EC50 (luciferase reporter).
Enter your answer as a number in nM; do not include the unit.

Some binders with known EC50 (luciferase reporter) results, for comparison:
Biotin-H(Trt)K(Octanoyl)FY [HKFY-2] ... 140
H(Trt)K(Octanoyl)FYQNQARF (not fully specified; printed as His(trt)-Lys(caprylic)-Phe-Tyr-Gln-Asn-Gln-Ala-Arg-Phe) [HKFY-43] ... 1210
H(phenethyl)K(Octanoyl)FY [HKFY-19] ... 24600
H(Benzhydryl)K(Octanoyl)[dPhe(4-Me)][Tyr(3-amino)] [HKFY-70] ... 20
H(Benzhydryl)K(Octanoyl)[dPhe(4-Me)][Tyr(3-chloro)] [HKFY-67] ... 43
H(thiophene)K(Octanoyl)[dPhe(4-Me)]Y [HKFY-63] ... 6
H(Trt)K(Octanoyl)[dF]Y [HKFY-12] ... 35
H(Benzhydryl)K(Octanoyl)[dPhe(4-Me)]Y(SO3H) [HKFY-35] ... 280
H(Tos)K(Octanoyl)[dPhe(4-Me)]Y [HKFY-75] ... 1
H(4‑methyltrityl)K(Octanoyl)FY [HKFY-5] ... 1840

// EC50 (luciferase reporter) value for H(Trt)K(Octanoyl)[dPhe(4-CF3)]Y [HKFY-76] : 7

// EC50 (luciferase reporter) value for H(Trt)GSK(Octanoyl)FY [HKFY-53] : 340

// EC50 (luciferase reporter) value for H(DAMP‑3)K(Octanoyl)FY [HKFY-6] : 68400
